# target.desc: Hepatocyte growth factor receptor (Homo sapiens, UniProt P08581)
# assay.name: Inhibition of recombinant c-MET (unknown origin) using poly-AEKY peptide as substrate after 60 mins by ADPGlo assay
pIC50: −log10 of the molar value.
Everything with pIC50 lower than 6 is not met; everything else, including exactly 6, is met.

{"smiles.str": "COc1cc2c(Oc3ccc(NS(=O)(=O)c4cccc(-c5cccs5)c4)cc3F)ccnc2cc1OCCCN1CCN(C)CC1", "label.value": "not met"}
{"smiles.str": "COc1cc2c(Oc3ccc(NS(=O)(=O)c4cc(-c5ccsc5)ccc4F)cc3F)ccnc2cc1OCCCN1CCN(C)CC1", "label.value": "not met"}
{"smiles.str": "COc1cc2c(Oc3ccc(NS(=O)(=O)c4cccc(-c5cnn(C)c5)c4)cc3F)ccnc2cc1OCCCN1CCOCC1", "label.value": "not met"}
{"smiles.str": "COc1cc2c(Oc3ccc(NC(=O)c4c(C)n(C)n(-c5ccccc5)c4=O)cc3F)ccnc2cc1OCCCN1CCOCC1", "label.value": "met"}
{"smiles.str": "CCOc1ccn(-c2ccc(F)cc2)c(=O)c1C(=O)Nc1ccc(Oc2ccnc(N)c2Cl)c(F)c1", "label.value": "met"}
{"smiles.str": "COc1cc2c(Oc3ccc(NC(=O)c4c(C)n(C)n(-c5ccccc5)c4=O)cc3F)ccnc2cc1OCCCN1CCN(C)CC1", "label.value": "met"}
{"smiles.str": "COc1cc2c(Oc3ccc(NS(=O)(=O)c4cccc(-c5cnn(C)c5)c4)cc3F)ccnc2cc1OCCCN1CCN(C)CC1", "label.value": "met"}
{"smiles.str": "COc1cc2c(Oc3ccc(NS(=O)(=O)c4cccc(-c5ccco5)c4)cc3F)ccnc2cc1OCCCN1CCN(C)CC1", "label.value": "not met"}
{"smiles.str": "COc1cc2c(Oc3ccc(NS(=O)(=O)c4cccc(-c5ccsc5)c4)cc3F)ccnc2cc1OCCCN1CCN(C)CC1", "label.value": "met"}
{"smiles.str": "COc1cc2c(Oc3ccc(NS(=O)(=O)c4ccc(-c5ccsc5)cc4)cc3F)ccnc2cc1OCCCN1CCN(C)CC1", "label.value": "not met"}

Value source: ChEMBL document CHEMBL3259680
